# System: Aspegillus fumigatus CF1003
# assayProtocol: In vitro antifungal activity, broth micro-dilution
# Type: cell-based
# conditionDescription: YNB medium with 0.2% agarose, 1-2 days at 35° C.
Numbered stars: 1 amine (or outer) side, 2 acyl side, 3 side chain; on linkers, the order of the positions; unused ones are H or OH. Bridge positions count the residues as written; N and C are the ends. Square brackets hold non-standard residues; d marks the D form. Peptide text beside a SMILES is read from it. ξ: configuration not given here. Hexadecanoyl(3R-amino) = CCCCCCCCCCCCC[C@H](CC(=O)[*:2])N[*:1]; ξTyr(3-NO2) = NC(Cc1ccc(O)c([N+](=O)[O-])c1)C(=O)O; X7 = CCCCCCCCCCCCC(C)[C@H](CC(=O)[*:1])O[*:2]; X4 = CCCCCCCCCCCCC[C@H](CC(=O)[*:1])O[*:2]; X2 = NC(=O)CC(O)C(N[*:1])C(=O)[*:2]; X1 = O=C(C1C(O)CCN1[*:1])[*:2]; ξY = NC(Cc1ccc(O)cc1)C(=O)O; ξHyp = O=C(O)C1CC(O)CN1; ξOrn = NCCCC(N)C(=O)O; ξT = CC(O)C(N)C(=O)O; ξV = CC(C)C(N)C(=O)O; ξA = CC(N)C(=O)O
// reported In vitro Antifungal activity, IC50, Aspegillus fumigatus CF1003 per item
Report the figure in µg/mL without appending any unit label.

compound="CCCCCCCCCCCCC[C@@H]1CC(=O)NC(C(C)O)C(=O)NC(C)C(=O)NC(Cc2ccc(O)c([N+](=O)[O-])c2)C(=O)NC(C(C)C)C(=O)N2CC(O)CC2C(=O)NC(C(C)O)C(=O)NC(C(C)O)C(=O)N2CCC(O)C2C(=O)NC(C(O)CC(N)=O)C(=O)NCC(=O)NC(C(C)O)C(=O)NC(CCCN)C(=O)N1 (stereo partly drawn) [Aerothricin 39] (cyclo(G[ξT][ξOrn][Hexadecanoyl(3R-amino)][ξT][ξA][ξTyr(3-NO2)][ξV][ξHyp][ξT][ξT][X1][X2]))" assayedsystem="Aspegillus fumigatus CF1003" endpointunit=µg/mL testvalue=0.17
compound="CCCCCCCCCCCCC(C)[C@@H]1CC(=O)NC(C(C)O)C(=O)NC(C)C(=O)NC(Cc2ccc(O)cc2)C(=O)NC(C(C)C)C(=O)N2CC(O)CC2C(=O)NC(C(C)O)C(=O)NC(C(C)O)C(=O)N2CCC(O)C2C(=O)NC(C(O)CC(N)=O)C(=O)NCC(=O)NC(C(C)O)C(=O)NC(CCCN)C(=O)O1 (stereo partly drawn) [Aerothricin 1] ([ξT][ξA][ξY][ξV][ξHyp][ξT][ξT][X1][X2]G[ξT][ξOrn]; linker N-C via X7)" assayedsystem="Aspegillus fumigatus CF1003" endpointunit=µg/mL testvalue=0.06

Next compound, please.
**Q:** Report In vitro Antifungal activity, IC50, Aspegillus fumigatus CF1003 for CCCCCCCCCCCCC[C@@H]1CC(=O)NC(C(C)O)C(=O)NC(C)C(=O)NC(Cc2ccc(OC)cc2)C(=O)NC(C(C)C)C(=O)N2CC(O)CC2C(=O)NC(C(C)O)C(=O)NC(C(C)O)C(=O)N2CCC(O)C2C(=O)NC(C(O)CC(N)=O)C(=O)NCC(=O)NC(C(C)O)C(=O)NC(CCCN)C(=O)O1 (stereo partly drawn) [Aerothricin 5] ([ξT][ξA][ξY](Me)[ξV][ξHyp][ξT][ξT][X1][X2]G[ξT][ξOrn]; linker N-C via X4) please.
**A:** 0.07

====

# System: Candida albicans
# assayProtocol: Murine systemic candidiasis
# Format: in vivo, mice
# conditionDescription: i.v., b.i.d×1 day followed by q.d.×2 days; survival on day 14
Numbered stars: 1 amine (or outer) side, 2 acyl side, 3 side chain; on linkers, the order of the positions; unused ones are H or OH. Bridge positions count the residues as written; N and C are the ends. Square brackets hold non-standard residues; d marks the D form. Peptide text beside a SMILES is read from it. ξ: configuration not given here. X11 = CCCCCOc1ccc(-c2ccc(CC[C@H](CC(=O)[*:1])N[*:2])cc2)cc1; X4 = CCCCCCCCCCCCC[C@H](CC(=O)[*:1])O[*:2]; X2 = NC(=O)CC(O)C(N[*:1])C(=O)[*:2]; X1 = O=C(C1C(O)CCN1[*:1])[*:2]; ξY = NC(Cc1ccc(O)cc1)C(=O)O; ξHyp = O=C(O)C1CC(O)CN1; ξOrn = NCCCC(N)C(=O)O; ξT = CC(O)C(N)C(=O)O; ξV = CC(C)C(N)C(=O)O; ξA = CC(N)C(=O)O
// reported In vivo antifungal activity against systemic candidiasis in mice, ED50 on day 14 per item
Report the figure in mg/kg without appending any unit label.

compound="CCCCCCCCCCCCC[C@@H]1CC(=O)NC(C(C)O)C(=O)NC(C)C(=O)NC(Cc2ccc(OC)cc2)C(=O)NC(C(C)C)C(=O)N2CC(O)CC2C(=O)NC(C(C)O)C(=O)NC(C(C)O)C(=O)N2CCC(O)C2C(=O)NC(C(O)CC(N)=O)C(=O)NCC(=O)NC(C(C)O)C(=O)NC(CCCN)C(=O)O1 (stereo partly drawn) [Aerothricin 5] ([ξT][ξA][ξY](Me)[ξV][ξHyp][ξT][ξT][X1][X2]G[ξT][ξOrn]; linker N-C via X4)" assayedsystem="Candida albicans" testvalue=0.3
compound="CCCCCOc1ccc(-c2ccc(CC[C@@H]3CC(=O)NC(C(C)O)C(=O)NC(C)C(=O)NC(Cc4ccc(O)cc4)C(=O)NC(C(C)C)C(=O)N4CC(O)CC4C(=O)NC(C(C)O)C(=O)NC(C(C)O)C(=O)N4CCC(O)C4C(=O)NC(C(O)CC(N)=O)C(=O)NCC(=O)NC(C(C)O)C(=O)NC(CCCN)C(=O)N3)cc2)cc1 (stereo partly drawn) [Aerothricin 41] ([ξT][ξA][ξY][ξV][ξHyp][ξT][ξT][X1][X2]G[ξT][ξOrn]; linker N-C via X11)" assayedsystem="Candida albicans" testvalue=0.3

Next compound, please.
**Q:** Report In vivo antifungal activity against systemic candidiasis in mice, ED50 on day 14 for CCCCCCCCCCOc1ccc(CC[C@@H]2CC(=O)NC(C(C)O)C(=O)NC(C)C(=O)NC(Cc3ccc(O)cc3)C(=O)NC(C(C)C)C(=O)N3CC(O)CC3C(=O)NC(C(C)O)C(=O)NC(C(C)O)C(=O)N3CCC(O)C3C(=O)NC(C(O)CC(N)=O)C(=O)NCC(=O)NC(C(C)O)C(=O)NC(CCCN)C(=O)N2)cc1 (stereo partly drawn) please.
**A:** 0.6

====

# Tested on: mouse hepatocytes
# assayProtocol: In vitro hepatotoxicity test
# Type: cell-based
# conditionDescription: mouse hepatocyte monolayers, 1 day exposure, morphological evaluation
# From the text: The mouse hepatocytes were isolated by a collagenase digestion and cultured in microtest plates. The hepatocyte monolayers were exposed to the test Aerothricins in the culture system for 1 day. After the culture period, the hepatocytes were observed under a microscope and evaluated morphologically. The degree of the morphological alteration (degeneration) of the hepatocytes by the test Aerothricins were compared with WF11243 and LY303366.
Numbered stars: 1 amine (or outer) side, 2 acyl side, 3 side chain; on linkers, the order of the positions; unused ones are H or OH. Bridge positions count the residues as written; N and C are the ends. Square brackets hold non-standard residues; d marks the D form. Peptide text beside a SMILES is read from it. * marks the point of attachment. pTerphenylCO(4''-OnC5H11) = CCCCCOc1ccc(-c2ccc(-c3ccc(C(=O)*)cc3)cc2)cc1; Orn(4R-OH,5R-OH) = O=C([C@H](C[C@@H](O)[C@@H](O)N[*:3])N[*:1])[*:2]; hTyr(3S-OH,4S-OH) = N[C@H](C(=O)O)[C@H](O)[C@@H](O)c1ccc(O)cc1; Pro(3S-OH,4S-Me) = C[C@H]1CN[C@H](C(=O)O)[C@H]1O; Hyp = O=C(O)[C@@H]1C[C@@H](O)CN1
measurementLabel: Cytotoxicity to hepatocyte (µg/mL)
Report the figure in µg/mL without appending any unit label.

**Q:** Report Cytotoxicity to hepatocyte for CCCCCOc1ccc(-c2ccc(-c3ccc(C(=O)N[C@H]4C[C@@H](O)[C@@H](O)NC(=O)[C@@H]5[C@@H](O)[C@@H](C)CN5C(=O)[C@H]([C@@H](C)O)NC(=O)[C@H]([C@H](O)[C@@H](O)c5ccc(O)cc5)NC(=O)[C@@H]5C[C@@H](O)CN5C(=O)[C@H]([C@@H](C)O)NC4=O)cc3)cc2)cc1 [LY303366, reference compound] ({pTerphenylCO(4''-OnC5H11)}-[Orn(4R-OH,5R-OH)]T[Hyp][hTyr(3S-OH,4S-OH)]T[Pro(3S-OH,4S-Me)]; lactam 1-C) please.
**A:** 10
